meta.source: patent US11192893B2

Target Under Test: human cytoplasmic dynein 2 (Homo sapiens (Human), UniProt Q8NCM8)
Sequence (Q8NCM8 1091-4307 limits assumed): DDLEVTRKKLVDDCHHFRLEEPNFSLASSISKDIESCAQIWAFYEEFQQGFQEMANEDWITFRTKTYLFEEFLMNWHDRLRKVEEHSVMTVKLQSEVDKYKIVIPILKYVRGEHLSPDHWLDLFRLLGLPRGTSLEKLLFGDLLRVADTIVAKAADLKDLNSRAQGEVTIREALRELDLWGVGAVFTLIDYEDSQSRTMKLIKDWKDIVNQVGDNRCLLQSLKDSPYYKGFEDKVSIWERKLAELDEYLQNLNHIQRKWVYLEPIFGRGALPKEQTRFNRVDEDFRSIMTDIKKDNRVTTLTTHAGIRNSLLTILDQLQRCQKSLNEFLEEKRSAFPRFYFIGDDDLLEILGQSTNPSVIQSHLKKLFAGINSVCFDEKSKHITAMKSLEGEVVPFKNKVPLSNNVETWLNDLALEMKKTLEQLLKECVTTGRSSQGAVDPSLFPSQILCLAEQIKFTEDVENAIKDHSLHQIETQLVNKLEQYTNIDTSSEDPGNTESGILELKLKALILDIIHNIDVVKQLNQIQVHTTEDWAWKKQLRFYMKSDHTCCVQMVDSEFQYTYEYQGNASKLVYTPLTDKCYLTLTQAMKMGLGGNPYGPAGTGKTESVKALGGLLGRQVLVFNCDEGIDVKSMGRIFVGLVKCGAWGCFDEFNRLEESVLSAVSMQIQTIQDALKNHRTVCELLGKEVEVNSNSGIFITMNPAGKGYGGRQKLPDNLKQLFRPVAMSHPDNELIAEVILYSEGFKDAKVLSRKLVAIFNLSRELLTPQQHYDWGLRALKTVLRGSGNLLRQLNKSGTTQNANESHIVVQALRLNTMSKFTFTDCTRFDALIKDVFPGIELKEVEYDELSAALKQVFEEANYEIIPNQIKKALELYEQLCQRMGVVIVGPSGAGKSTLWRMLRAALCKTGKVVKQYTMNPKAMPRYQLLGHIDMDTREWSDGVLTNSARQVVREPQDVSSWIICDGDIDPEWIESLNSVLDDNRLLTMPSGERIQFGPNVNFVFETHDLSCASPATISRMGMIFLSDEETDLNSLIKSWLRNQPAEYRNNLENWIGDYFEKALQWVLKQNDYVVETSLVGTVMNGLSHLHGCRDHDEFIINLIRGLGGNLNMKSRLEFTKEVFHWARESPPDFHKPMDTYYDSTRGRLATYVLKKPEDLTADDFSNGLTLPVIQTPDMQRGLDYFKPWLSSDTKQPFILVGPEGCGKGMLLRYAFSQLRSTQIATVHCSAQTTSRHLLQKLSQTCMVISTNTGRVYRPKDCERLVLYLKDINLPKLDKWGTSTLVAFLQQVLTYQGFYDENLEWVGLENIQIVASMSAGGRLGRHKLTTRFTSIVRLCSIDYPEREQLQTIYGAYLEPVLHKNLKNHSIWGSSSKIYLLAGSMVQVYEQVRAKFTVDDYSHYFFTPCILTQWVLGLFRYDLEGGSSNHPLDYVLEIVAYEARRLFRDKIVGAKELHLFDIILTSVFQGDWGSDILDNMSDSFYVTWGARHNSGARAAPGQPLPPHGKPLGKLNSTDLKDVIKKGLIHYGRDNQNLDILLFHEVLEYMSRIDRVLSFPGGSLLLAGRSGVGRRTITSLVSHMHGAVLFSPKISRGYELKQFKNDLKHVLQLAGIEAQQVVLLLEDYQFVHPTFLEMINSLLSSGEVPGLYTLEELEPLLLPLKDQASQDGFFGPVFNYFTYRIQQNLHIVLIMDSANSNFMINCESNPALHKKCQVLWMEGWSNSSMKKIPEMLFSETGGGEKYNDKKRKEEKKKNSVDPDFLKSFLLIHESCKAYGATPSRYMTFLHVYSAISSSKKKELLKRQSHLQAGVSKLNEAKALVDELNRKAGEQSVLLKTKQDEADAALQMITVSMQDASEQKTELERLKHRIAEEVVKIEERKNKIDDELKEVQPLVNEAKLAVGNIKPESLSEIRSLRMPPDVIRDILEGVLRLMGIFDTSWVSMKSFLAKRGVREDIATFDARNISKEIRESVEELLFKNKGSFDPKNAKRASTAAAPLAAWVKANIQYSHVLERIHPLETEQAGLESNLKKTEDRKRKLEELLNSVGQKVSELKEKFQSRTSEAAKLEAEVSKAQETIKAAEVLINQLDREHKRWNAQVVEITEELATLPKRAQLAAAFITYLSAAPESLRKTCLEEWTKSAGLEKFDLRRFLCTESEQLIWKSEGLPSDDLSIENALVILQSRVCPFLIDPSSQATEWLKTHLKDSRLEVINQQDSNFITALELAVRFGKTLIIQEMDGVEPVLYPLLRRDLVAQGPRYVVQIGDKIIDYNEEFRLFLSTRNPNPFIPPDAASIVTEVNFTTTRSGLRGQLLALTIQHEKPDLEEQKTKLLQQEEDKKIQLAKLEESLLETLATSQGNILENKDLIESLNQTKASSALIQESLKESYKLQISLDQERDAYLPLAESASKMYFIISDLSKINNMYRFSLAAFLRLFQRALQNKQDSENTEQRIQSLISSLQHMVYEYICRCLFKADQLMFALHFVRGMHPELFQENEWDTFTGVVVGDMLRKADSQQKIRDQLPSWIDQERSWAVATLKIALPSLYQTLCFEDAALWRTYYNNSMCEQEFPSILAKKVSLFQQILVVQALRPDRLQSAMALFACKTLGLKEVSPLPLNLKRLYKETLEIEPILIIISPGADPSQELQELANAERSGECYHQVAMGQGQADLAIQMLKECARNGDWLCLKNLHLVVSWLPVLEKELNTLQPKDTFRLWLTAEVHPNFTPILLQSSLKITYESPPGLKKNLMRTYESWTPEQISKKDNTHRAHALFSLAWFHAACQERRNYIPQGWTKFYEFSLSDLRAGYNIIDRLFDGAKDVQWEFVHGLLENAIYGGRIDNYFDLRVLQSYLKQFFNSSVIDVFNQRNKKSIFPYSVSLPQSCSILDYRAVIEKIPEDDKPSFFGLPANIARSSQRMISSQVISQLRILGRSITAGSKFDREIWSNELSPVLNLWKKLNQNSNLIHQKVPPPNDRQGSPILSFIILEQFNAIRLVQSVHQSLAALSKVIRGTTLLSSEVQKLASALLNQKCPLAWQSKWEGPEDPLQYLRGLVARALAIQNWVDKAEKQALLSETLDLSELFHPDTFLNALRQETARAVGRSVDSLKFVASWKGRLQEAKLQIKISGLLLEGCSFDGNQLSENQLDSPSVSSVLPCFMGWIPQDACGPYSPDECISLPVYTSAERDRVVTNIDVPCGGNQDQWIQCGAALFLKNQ
Method Description: microtubule gliding assay with GFP-dynein 2
Format: biochemical
Experimental Context: dynein 2-driven microtubule gliding; test compounds at 20 pM (so in the source); 1 mM MgATP, 0.05 mg/mL casein, 2% DMSO; solvent control 126 ± 17
Measure: Gliding velocity (nm/s)
Please reply with the bare figure in nm/s and do not write the unit itself.

As a guide, the following entries are already answered.
"N#Cc1c(-c2ccc(Cl)cc2Cl)nn2c1[nH]c(=O)c1ccccc12" has a reported Gliding velocity of 83

get_value(item= "O=c1[nH]c2cc(-c3ccc(Cl)cc3Cl)nn2c2ccccc12" , readout=Gliding velocity) returns 83

Input "N#Cc1c(C2(c3ccc(Cl)cc3)CC2)nn2c1[nH]c(=O)c1ccccc12" . Output Gliding velocity: 58

Next:
response.value for "N#Cc1c(C2(c3ccc(Cl)cc3)CC2)nn2c1[nH]c(=O)c1cc(I)ccc12" (field: Gliding velocity) = 6

// field: Gliding velocity; key: "N#Cc1c(C2(c3ccc(Cl)cc3)CC2)nn2c1[nH]c(=O)c1cc(C(F)(F)F)ccc12" ; value = 6

====

Tested on: Hedgehog pathway activity
Method Description: Shh-Light luciferase reporter assay of Hedgehog pathway activity (Shh-Light2 cells, SAG-stimulated)
Assay type: cell-based
Experimental Context: Table 2, SAG 500 nM, 28-32 hr treatment, read-out: Shh-light IC50
Text: To examine the inhibition of dynein 2 in cell-based assays, an established luciferase reporter-based cellular assay of Hedgehog pathway activity was employed [Taipale et al., Nature. 2000; 406(6799): 1005-9]. […] NIH-3T3 cells stably expressing a luciferase reporter downstream of a Gli binding site (Shh-Light2 cells, RRID: CVCL_2721) were maintained in DMEM with 10% bovine calf serum (BCS). […] Luminescence for each condition was read using a Synergy Neo plate reader (5 s integration time per well). […]
Measure: pIC50
The value called pIC50 is obtained by taking minus log10 of the concentration in mol/L.

For reference, reported pIC50 for "N#Cc1c(CCCOc2ccc(Cl)cc2)nn2c(=O)c3ccccc3[nH]c12" stands at 6.17

So, "COc1ccc2[nH]c3c(C(N)=O)c(-c4ccc(Cl)cc4Cl)nn3c(=O)c2c1" ? Its pIC50 was 4.89

In plain terms, "N#Cc1c(C2(c3ccc(Cl)cc3)CC2)nn2c(=O)c3ccccc3[nH]c12" has a documented pIC50 of 6.18

Notebook: "N#Cc1c(-c2ccc(Cl)cc2Cl)nn2c(=O)c3ccc(Cl)cc3[nH]c12" , pIC50 read as 5.68

pIC50 reported for this compound "COc1c(Cl)ccc2c(=O)n3nc(-c4ccc(Cl)cc4Cl)c(C#N)c3[nH]c12" : 5.70

Given item "N#Cc1ccc2c(c1)c(=O)[nH]c1c(C#N)c(C3(c4ccc(Cl)cc4)CC3)nn12" , the value recorded as its pIC50 is 5.82

Per the records, this compound ( "N#Cc1c(C2(c3ccc(Cl)cc3)CC2)nn2c1[nH]c(=O)c1cc(I)ccc12" ) has pIC50 equal to 5.84

Lab note: measured pIC50 of N#Cc1c(C2CCC(c3ccc(Cl)cc3)CC2)nn2c(=O)c3cc(C(F)(F)F)ccc3[nH]c12 (centres unmarked) was 6.49
